test system: aorta; settings: ApoE mice on high-fat diet 35-42 weeks, 0.3-0.4 mCi/kg bolus via tail vein, 60 min post injection
Quick list: aorta uptake (% ID/g) per entry.
Express the result in % ID/g but write the number alone.

Take a look at these entries with their results.
Query: # get_value(readout= aorta uptake (% ID/g), system= aorta) for [153Gd+3].[NH3+][C@H](CCc1ccccc1)C(=O)NOc1ccc(CNC(=O)CN(CCN(CC(=O)[O-])CC(=O)[O-])CCN(CC(=O)[O-])CC(=O)[O-])cc1
Response: 4.7

Query: # get_value(readout= aorta uptake (% ID/g), system= aorta) for N[C@H](Cc1ccc2ccccc2c1)C(=O)NOCc1ccc(CNC(=O)CN2CCN(CC(=O)[O-])CCN(CC(=O)[O-])CCN(CC(=O)[O-])CC2)cc1.[153Gd+3]
Response: 18.4

Query: # get_value(readout= aorta uptake (% ID/g), system= aorta) for N[C@H](Cc1cc2ccccc2[nH]1)C(=O)NOCc1ccc(CNC(=O)CN2CCN(CC(=O)[O-])CCN(CC(=O)[O-])CCN(CC(=O)[O-])CC2)cc1.[153Gd+3]
Response: 11.8

Query: # get_value(readout= aorta uptake (% ID/g), system= aorta) for [153Gd+3].[NH3+][C@H](Cc1ccccc1)C(=O)NOCc1ccc(CNC(=O)CN(CCN(CC(=O)[O-])CC(=O)[O-])CCN(CC(=O)[O-])CC(=O)[O-])cc1
Response: 6.1

Query: # get_value(readout= aorta uptake (% ID/g), system= aorta) for CC(C)C[C@@H]([NH3+])C(=O)NOCc1ccc(CNC(=O)CN(CCN(CC(=O)[O-])CC(=O)[O-])CCN(CC(=O)[O-])CC(=O)[O-])cc1.[153Gd+3]
Response: 8.5

Next:
Query: # get_value(readout= aorta uptake (% ID/g), system= aorta) for CC(C)C[C@@H](N)C(=O)NOCc1ccc(CNC(=O)CN2CCN(CC(=O)[O-])CCN(CC(=O)[O-])CCN(CC(=O)[O-])CC2)cc1.[153Gd+3]
Response: 8.2

Query: # get_value(readout= aorta uptake (% ID/g), system= aorta) for [153Gd+3].[NH3+][C@H](CCc1ccccc1)C(=O)NOCCCc1ccc(CNC(=O)CN(CCN(CC(=O)[O-])CC(=O)[O-])CCN(CC(=O)[O-])CC(=O)[O-])cc1
Response: 8.4

Query: # get_value(readout= aorta uptake (% ID/g), system= aorta) for [153Gd+3].[NH3+][C@H](Cc1ccc(-c2ccccc2)cc1)C(=O)NOCCCCCCNC(=O)CN(CCN(CC(=O)[O-])CC(=O)[O-])CCN(CC(=O)[O-])CC(=O)[O-]
Response: 2.0

Query: # get_value(readout= aorta uptake (% ID/g), system= aorta) for [153Gd+3].[NH3+][C@H](CCc1ccccc1)C(=O)NOCCc1ccc(CNC(=O)CN(CCN(CC(=O)[O-])CC(=O)[O-])CCN(CC(=O)[O-])CC(=O)[O-])cc1
Response: 10.4

Query: # get_value(readout= aorta uptake (% ID/g), system= aorta) for [153Gd+3].[NH3+][C@H](Cc1ccc2ccccc2c1)C(=O)NOCc1ccc(CNC(=O)CN(CCN(CC(=O)[O-])CC(=O)[O-])CCN(CC(=O)[O-])CC(=O)[O-])cc1
Response: 11.1

Query: # get_value(readout= aorta uptake (% ID/g), system= aorta) for [153Gd+3].[NH3+][C@@H](CCc1ccccc1)C(=O)NOCc1ccc(CNC(=O)CN(CCN(CC(=O)[O-])CC(=O)[O-])CCN(CC(=O)[O-])CC(=O)[O-])cc1
Response: 6.1
